Each entry below carries its recorded pEC50.
# TARGET_OF_ASSAY: GPCR GPR40 (Rattus norvegicus, UniProt Q8K3T4)
# Sequence (Q8K3T4 whole entry): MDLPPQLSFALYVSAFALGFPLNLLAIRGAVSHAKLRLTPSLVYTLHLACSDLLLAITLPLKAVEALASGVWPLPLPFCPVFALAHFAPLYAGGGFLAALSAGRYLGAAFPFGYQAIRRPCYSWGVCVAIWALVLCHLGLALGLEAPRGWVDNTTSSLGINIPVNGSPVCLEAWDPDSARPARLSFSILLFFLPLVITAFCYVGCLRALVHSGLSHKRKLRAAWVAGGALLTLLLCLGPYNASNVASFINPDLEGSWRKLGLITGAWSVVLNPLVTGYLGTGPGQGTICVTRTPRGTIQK
# PROTOCOL_DESCRIPTION: In vitro FLIPR assay with recombinant cells which express the GPCR GPR40
# PARTICULARS: recombinant HEK293 cells expressing GPR40; agonist-induced change in intracellular Ca2+ (Fluo-4, FLIPR); 100% = 10 μM reference agonist linoleic acid
pEC50: −log10 of the molar value.
MEASUREMENT_NAME: pEC50

CC#CC(CC(=O)O)c1ccc(OCC2(COc3ccc(C(F)(F)F)cc3Cl)COC2)cc1 (stereo not drawn) [Example 4]; 5.59
CC#CC(CC(=O)O)c1ccc(OCC2(COc3cccc(C)c3)CCC2)cc1 (stereo not drawn) [Example 7]; 5.81
CC#CC(CC(=O)O)c1ccc(OCC2(COc3ccc(C(F)(F)F)cn3)CC2)cc1 (stereo not drawn) [Example 14]; 6.77
